Experiment: Oral bioavailability in Swiss mouse at 20 mg/kg measured up to 24 hrs by LC-MS analysis
Format: ADME, organism-based
Conditions: in vivo
Parameter measured: bioavailability

Which bioavailability is listed for Cc1cc(C(C)NC(=O)c2[nH]cc(Cc3ccc(C(F)(F)F)nc3)c2C)no1 (stereo in doubt; form 1) ? 61%

----------
Assay: physchem
Settings: FeSSIF, pH 5.8
Parameter measured: solubility at 5 h (µg/mL)
Number only, in µg/mL; omit the unit.

Which solubility at 5 h is listed for Cc1cc(Nc2ccc(S(F)(F)(F)(F)F)cc2)n2nc(C(F)(F)F)nc2n1 ? 27.6

----------
As an illustration, consider measured pEC50 for compounds on Plasmodium falciparum.
pEC50 here is simply -log10 of the concentration when that concentration is written in mol/L.

Below, each entry is followed by its recorded pEC50 result.
>>> value_reported("Cc1[nH]c(C(=O)NC(C)c2cn[nH]c2)c(C)c1Cc1ccc(C(F)(F)F)nc1 (stereo in doubt; form 1)")
8.22
>>> value_reported("Cc1c(Cc2ccc(C(F)(F)F)nc2)c[nH]c1C(=O)NC(C)c1nc[nH]n1 (stereo in doubt; form 1)")
7.18
>>> value_reported("Cc1cc(C(C)NC(=O)c2[nH]cc(C3(c4ccc(C(F)(F)F)nc4)CC3)c2C)no1 (stereo in doubt; form 1)")
7.96
>>> value_reported("Cc1[nH]c(C(=O)NC(C)c2nc[nH]n2)c(C)c1Cc1ccc(C(F)(F)F)nc1 (stereo in doubt; form 2)")
6.12
>>> value_reported("CNC(=O)c1cc(C(C)NC(=O)c2[nH]cc(C3(c4ccc(C(F)(F)F)nc4)CC3)c2C)n[nH]1 (stereo in doubt; form 1)")
6.28

With those in mind, consider the next compound.
Which pEC50 is listed for Cc1c(C2(c3ccc(C(F)F)nc3)CC2)c[nH]c1C(=O)NC(C)c1nc[nH]n1 (stereo in doubt; form 1) ? 6.74

----------
As an illustration, consider measured TDI for compounds on Cytochrome P450 3A4 (Homo sapiens).
Sequence (P08684 whole entry): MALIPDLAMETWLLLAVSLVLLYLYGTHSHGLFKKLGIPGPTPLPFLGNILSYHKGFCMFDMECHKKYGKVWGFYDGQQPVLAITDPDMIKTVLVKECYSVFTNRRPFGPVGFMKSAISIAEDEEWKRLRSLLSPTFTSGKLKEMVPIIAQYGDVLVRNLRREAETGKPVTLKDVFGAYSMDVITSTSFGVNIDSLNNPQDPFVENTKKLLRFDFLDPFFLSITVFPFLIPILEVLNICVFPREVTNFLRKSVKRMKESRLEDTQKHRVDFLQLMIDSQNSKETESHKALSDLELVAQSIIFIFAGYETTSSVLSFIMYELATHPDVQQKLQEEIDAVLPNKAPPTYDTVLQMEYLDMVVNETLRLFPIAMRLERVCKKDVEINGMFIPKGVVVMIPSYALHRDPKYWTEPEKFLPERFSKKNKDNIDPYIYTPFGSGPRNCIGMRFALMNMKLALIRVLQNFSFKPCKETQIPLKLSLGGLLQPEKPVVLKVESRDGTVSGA
Parameter measured: TDI

>>> value_reported("Cc1c(C2(c3ccc(C(F)(F)F)nc3)CC2)c[nH]c1C(=O)NC(C)c1nc[nH]n1 (stereo in doubt; form 1)")
"Not Active"
>>> value_reported("Cc1c(C2(c3ccc(C(F)(F)F)nc3)CC2)c[nH]c1C(=O)NC(C)c1c[nH]cn1 (stereo in doubt; form 1)")
"Active"
>>> value_reported("Cc1c(Cc2ccc(C(F)(F)F)nc2)c[nH]c1C(=O)NC(C)c1cnn(C)c1 (stereo in doubt; form 1)")
"Not Active"
>>> value_reported("Cc1c(Cc2ccc(C(F)(F)F)nc2)c[nH]c1C(=O)NC(C)c1cn[nH]c1 (stereo in doubt; form 1)")
"Active"

----------
Listed here: items and their measured PPB.
Settings: human, plasma
Number only, in %; omit the unit.

>>> value_reported("Cc1c(C2(c3ccc(C(F)(F)F)nc3)CC2)c[nH]c1C(=O)NC(C)c1nc[nH]n1 (stereo in doubt; form 1)")
92.8
>>> value_reported("Cc1cc(C(C)NC(=O)c2[nH]cc(Cc3ccc(C(F)(F)F)nc3)c2C)no1 (stereo in doubt; form 1)")
94.7
>>> value_reported("Cc1c(Cc2ccc(C(F)(F)F)nc2)c[nH]c1C(=O)NC(C)c1cn[nH]c1 (stereo in doubt; form 1)")
84

With those in mind, consider the next molecule.
Which PPB is listed for Cc1c(Cc2ccc(C(F)(F)F)nc2)c[nH]c1C(=O)NC(C)c1cnn(C)c1 (stereo in doubt; form 1) ? 83
